protocol-details: Assessment of solubility: HT solubility in pION buffer, UV spectrophotometry
run-conditions: pION system solution buffer, pH 4.5, pH 4.5, aqueous buffer, kinetic from dmso stock, Solubility (pH 4.5), pH 4.5 buffer, 16-19 h incubation, 1.0% DMSO
Consider the following compounds and their measured solubility readings.

Cc1ccc(OCc2ccc(C(=O)N(C)C)cc2C)c(-c2csc(N3C[C@H]4CC[C@@H](C3)[C@H]4C(=O)O)n2)c1 [Compound 304] = < 0.1 µg/mL

(Q) // fetch solubility given entry Cc1cc(CN2CCCC(C(N)=O)C2)ccc1COc1c(C)cccc1-c1csc(N2CCC(C(=O)O)CC2)n1 (centres unmarked) [Compound 94]
(A) > 56 µg/mL
